Target: T1, G4R1/RHAU (G4 Resolvase 1) (human, UniProt Q9H2U1 1-1008)
T1 sequence: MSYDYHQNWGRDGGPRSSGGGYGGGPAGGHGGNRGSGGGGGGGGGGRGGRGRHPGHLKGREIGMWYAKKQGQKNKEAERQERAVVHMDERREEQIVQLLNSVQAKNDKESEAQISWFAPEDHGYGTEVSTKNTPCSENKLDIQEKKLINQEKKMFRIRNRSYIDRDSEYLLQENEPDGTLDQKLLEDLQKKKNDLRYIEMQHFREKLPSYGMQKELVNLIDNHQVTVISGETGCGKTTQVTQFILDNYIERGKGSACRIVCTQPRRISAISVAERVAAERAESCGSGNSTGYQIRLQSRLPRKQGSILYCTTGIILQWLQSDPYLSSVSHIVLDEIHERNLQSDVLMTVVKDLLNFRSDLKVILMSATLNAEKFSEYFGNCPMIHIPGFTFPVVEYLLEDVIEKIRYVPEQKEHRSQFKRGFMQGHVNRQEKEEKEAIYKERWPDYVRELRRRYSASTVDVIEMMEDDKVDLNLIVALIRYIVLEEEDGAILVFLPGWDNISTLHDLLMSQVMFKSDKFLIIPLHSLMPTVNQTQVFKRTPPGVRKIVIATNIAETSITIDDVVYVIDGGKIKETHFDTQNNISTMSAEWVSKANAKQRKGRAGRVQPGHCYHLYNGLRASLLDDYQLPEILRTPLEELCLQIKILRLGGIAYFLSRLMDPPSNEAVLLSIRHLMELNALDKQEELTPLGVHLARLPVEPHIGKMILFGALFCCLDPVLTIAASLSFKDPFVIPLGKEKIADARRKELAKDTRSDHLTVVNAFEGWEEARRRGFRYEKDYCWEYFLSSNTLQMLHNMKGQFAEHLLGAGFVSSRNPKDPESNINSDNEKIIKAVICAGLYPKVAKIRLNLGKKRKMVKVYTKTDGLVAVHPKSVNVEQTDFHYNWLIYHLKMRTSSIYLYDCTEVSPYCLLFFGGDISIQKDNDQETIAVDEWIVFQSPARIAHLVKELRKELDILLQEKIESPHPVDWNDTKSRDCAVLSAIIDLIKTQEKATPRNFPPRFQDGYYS
Assay: EMSA
MEASURED PROPERTY: pKd
pKd here: minus log base 10 of the concentration, concentration in moles per litre.

Query: Fill in the blank: the reported pKd of AAAAAAAAAAGGGTGGGGGGGCGGGGGAGGCCGGGGAAAAAAAAAA (structured_DNA) [Poly A Zic1 DNA 47-mer, unimolecular G4] is ____.
Reply: 11.30
